# Tested on: M19-MEL melanoma
# test.name: NCI tumour cell line growth inhibition, 48 h
Reported TGI values are given for each entry in this list.
property: TGI

{"columns": ["compound", "target.system", "test.value"],
 "data": [
  ["O=C(CSc1nnc(Cc2ccccc2)o1)Nc1cccc([N+](=O)[O-])c1", "M19-MEL melanoma", "> 100 µM"],
  ["Cc1cccc(C(C)(C)C)c1NC(=O)CCc1n[nH]c(=S)o1", "M19-MEL melanoma", "> 100 µM"],
  ["CC(C)=CC(=O)N1CCN(C(=O)C=C(C)C)CC1", "M19-MEL melanoma", "> 100 µM"],
  ["CN(C)/N=C(\\CCN1CCCC1)CC(c1ccccc1)c1c(O)c2ccccc2oc1=O (stereo unspecified)", "M19-MEL melanoma", "> 100 µM"],
  ["COc1cc2c(c(OC)c1OC)-c1ccc(SC)c(=O)cc1C(CC(=O)Oc1ccc([N+](=O)[O-])cc1)C2 (stereo unspecified)", "M19-MEL melanoma", "36.9 µM"],
  ["CC#CC(=O)Nc1ccccc1CC(c1c[nH]c2ccccc12)c1c[nH]c2ccccc12", "M19-MEL melanoma", "31.2 µM"],
  ["CC[C@]12C=CCN3CC[C@@]4(c5ccc(OC)cc5N(C)[C@H]4[C@@](O)(C(=O)OC)[C@@H]1OC(C)=O)[C@@H]32", "M19-MEL melanoma", "> 63.2 µM"],
  ["O=S(O)CCCCSSCCCCSSCCCCS(=O)O", "M19-MEL melanoma", "> 100 µM"],
  ["Oc1ccc2ccccc2c1N=Nc1ccc(F)cc1", "M19-MEL melanoma", "> 100 µM"],
  ["CCC1(O)C(=O)OCc2c1cc1n(c2=O)Cc2cc3c(N)cccc3nc2-1 (stereo unspecified)", "M19-MEL melanoma", "1.29 µM"],
  ["CC(=O)c1ccc(NC(=O)/C(Cc2ccccn2)=N/NC(=O)C[N+](C)(C)C)cc1", "M19-MEL melanoma", "> 100 µM"]
]}

Data provenance is PubChem BioAssay (NCI).
